// data source = the supplement of paper PMC6555819

# Test system: LXRa:RXRa (NR concentration 270 nM, RXRa partner concentration 90 nM)
# assay_overview: PBM binding z-score (relative to random genomic background probes); higher = stronger binding; sequences stand for … in GC…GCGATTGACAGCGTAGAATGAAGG
measured_attribute: PBM binding z-score
Reply with just the number.

QUERY: Sample "TCGAGTAGGTTACGGGGGCAGTCAGGGATGAAGA" — what was its PBM binding z-score?
RESULT: 2.27

QUERY: Sample "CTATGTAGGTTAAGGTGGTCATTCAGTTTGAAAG" — what was its PBM binding z-score?
RESULT: 1.15

QUERY: Sample "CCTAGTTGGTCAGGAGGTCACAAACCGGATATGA" — what was its PBM binding z-score?
RESULT: 2.85

QUERY: Sample "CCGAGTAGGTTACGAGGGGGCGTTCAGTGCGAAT" — what was its PBM binding z-score?
RESULT: 6.33

QUERY: Sample "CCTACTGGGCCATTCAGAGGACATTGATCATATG" — what was its PBM binding z-score?
RESULT: -0.34

QUERY: Sample "CCTAGCAGACCAATCTGGGTCACTCAAGGCTTGA" — what was its PBM binding z-score?
RESULT: 0.374

QUERY: Sample "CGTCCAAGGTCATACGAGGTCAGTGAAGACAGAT" — what was its PBM binding z-score?
RESULT: 7.57

QUERY: Sample "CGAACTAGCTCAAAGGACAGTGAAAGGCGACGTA" — what was its PBM binding z-score?
RESULT: -0.67

QUERY: Sample "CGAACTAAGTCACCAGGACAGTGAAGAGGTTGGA" — what was its PBM binding z-score?
RESULT: -0.109

QUERY: Sample "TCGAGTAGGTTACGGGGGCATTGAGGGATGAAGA" — what was its PBM binding z-score?
RESULT: 2.69

QUERY: Sample "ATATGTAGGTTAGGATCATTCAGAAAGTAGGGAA" — what was its PBM binding z-score?
RESULT: 0.786

QUERY: Sample "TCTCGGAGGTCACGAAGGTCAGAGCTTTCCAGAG" — what was its PBM binding z-score?
RESULT: 6.31

QUERY: Sample "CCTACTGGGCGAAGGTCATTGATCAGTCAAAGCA" — what was its PBM binding z-score?
RESULT: 2.99

QUERY: Sample "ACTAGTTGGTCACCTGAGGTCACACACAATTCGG" — what was its PBM binding z-score?
RESULT: 6.29

QUERY: Sample "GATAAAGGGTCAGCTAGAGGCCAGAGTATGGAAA" — what was its PBM binding z-score?
RESULT: 3.97

QUERY: Sample "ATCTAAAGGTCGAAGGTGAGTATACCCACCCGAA" — what was its PBM binding z-score?
RESULT: 4.47

QUERY: Sample "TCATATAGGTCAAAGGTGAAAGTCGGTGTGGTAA" — what was its PBM binding z-score?
RESULT: 6.06

QUERY: Sample "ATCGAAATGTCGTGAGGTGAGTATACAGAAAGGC" — what was its PBM binding z-score?
RESULT: -0.0819

QUERY: Sample "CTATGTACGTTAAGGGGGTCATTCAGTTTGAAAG" — what was its PBM binding z-score?
RESULT: 4.93

QUERY: Sample "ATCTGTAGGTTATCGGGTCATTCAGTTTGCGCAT" — what was its PBM binding z-score?
RESULT: 3.6

QUERY: Sample "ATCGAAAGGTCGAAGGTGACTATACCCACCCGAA" — what was its PBM binding z-score?
RESULT: 3.72

QUERY: Sample "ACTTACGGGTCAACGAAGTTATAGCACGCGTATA" — what was its PBM binding z-score?
RESULT: 4.01

QUERY: Sample "TCGAGTAGATTACGGGGGCATTCAGGGATGAAGA" — what was its PBM binding z-score?
RESULT: 1.87

QUERY: Sample "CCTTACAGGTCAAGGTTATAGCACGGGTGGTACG" — what was its PBM binding z-score?
RESULT: 4.73

QUERY: Sample "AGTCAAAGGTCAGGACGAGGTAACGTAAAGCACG" — what was its PBM binding z-score?
RESULT: 5.96

QUERY: Sample "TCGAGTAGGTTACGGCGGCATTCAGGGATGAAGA" — what was its PBM binding z-score?
RESULT: 0.356
